Biological target: (H^+ +K^+)ATPase (Rattus norvegicus, UniProt P09626)
Construct: Rat gastric mucosal tissue is collected from 170-220 g male Sprague-Dawley rats
Sequence (P09626 whole entry): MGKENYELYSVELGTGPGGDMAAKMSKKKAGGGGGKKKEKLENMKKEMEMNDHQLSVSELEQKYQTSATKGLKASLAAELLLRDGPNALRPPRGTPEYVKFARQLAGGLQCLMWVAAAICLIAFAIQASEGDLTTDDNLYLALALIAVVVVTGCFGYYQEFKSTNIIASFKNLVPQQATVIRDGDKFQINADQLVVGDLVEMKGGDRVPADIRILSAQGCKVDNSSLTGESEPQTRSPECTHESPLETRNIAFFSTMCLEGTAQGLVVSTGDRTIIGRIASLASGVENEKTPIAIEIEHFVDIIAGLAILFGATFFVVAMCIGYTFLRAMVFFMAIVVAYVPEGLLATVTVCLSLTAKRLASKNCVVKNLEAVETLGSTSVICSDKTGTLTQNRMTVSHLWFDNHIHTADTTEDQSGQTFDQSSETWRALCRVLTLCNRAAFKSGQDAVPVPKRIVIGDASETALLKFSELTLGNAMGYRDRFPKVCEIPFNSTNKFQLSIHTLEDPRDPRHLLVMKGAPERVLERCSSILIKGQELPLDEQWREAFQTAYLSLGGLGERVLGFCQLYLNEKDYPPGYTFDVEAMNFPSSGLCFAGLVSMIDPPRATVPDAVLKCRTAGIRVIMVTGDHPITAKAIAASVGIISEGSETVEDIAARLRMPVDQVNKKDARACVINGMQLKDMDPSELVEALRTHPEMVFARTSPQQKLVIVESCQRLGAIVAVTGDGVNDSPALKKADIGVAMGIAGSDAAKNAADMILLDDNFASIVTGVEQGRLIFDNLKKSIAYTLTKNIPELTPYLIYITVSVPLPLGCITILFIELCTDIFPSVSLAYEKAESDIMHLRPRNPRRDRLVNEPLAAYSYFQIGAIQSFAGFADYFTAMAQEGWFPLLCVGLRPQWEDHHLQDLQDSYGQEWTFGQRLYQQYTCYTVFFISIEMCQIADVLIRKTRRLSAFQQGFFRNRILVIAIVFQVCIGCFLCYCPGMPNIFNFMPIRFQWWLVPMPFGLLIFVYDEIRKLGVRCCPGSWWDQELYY
Sequence (P18598 whole entry partner): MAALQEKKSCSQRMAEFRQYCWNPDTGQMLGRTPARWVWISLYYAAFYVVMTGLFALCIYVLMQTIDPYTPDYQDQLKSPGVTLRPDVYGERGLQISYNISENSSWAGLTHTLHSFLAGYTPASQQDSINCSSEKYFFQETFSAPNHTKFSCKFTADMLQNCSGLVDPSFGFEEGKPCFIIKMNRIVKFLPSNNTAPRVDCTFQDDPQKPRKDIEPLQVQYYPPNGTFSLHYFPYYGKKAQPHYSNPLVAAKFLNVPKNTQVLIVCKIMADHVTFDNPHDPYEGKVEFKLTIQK
Experiment: Inhibition of dibutyryl cyclic AMP-stimulated 14C-aminopyrine uptake by rat gastric mucosal cells ((H^+ +K^+)ATPase inhibition)
Settings: 37° C., 2 hours
Method: The procedures for these tests and the results for some of the compounds of the invention are presented at the end of the following examples, which will serve to illustrate the present invention. The determination of the rate of gastric acid secretion cannot be measured quantitatively with isolated gastric glands or cells. […] The inhibition of ^14 C-AP uptake is quantified from the scintillation count results and the IC50 for test compounds is calculated. […]
test_readout: IC50 (nM)
# number only, unit nM dropped from output

Nc1c(N(CCCOc2cccc(CN3CCCCC3)c2)Cc2ccc3c(c2)OCO3)c(=O)c1=O: 10000
[O-][S+](Cc1ccccn1)c1nc2ccccc2[nH]1 (stereo not drawn): 1000
O=S1(=O)N=C(N(CCCOc2cccc(CN3CCCCC3)c2)Cc2ccc3c(c2)OCO3)c2cscc21: 5000
O=S1(=O)N=C(N(CCCOc2cccc(CN3CCCCC3)c2)Cc2ccccc2)c2cscc21: 400

Note to self: IC50 recorded for COc1ccc2[nH]c([S+]([O-])Cc3ncc(C)c(OC)c3C)nc2c1 (stereo not drawn) was 10

Note to self: IC50 recorded for "O=S1(=O)N=C(N(CCCOc2cccc(CN3CCCCC3)c2)Cc2ccccc2)c2ccccc21" was 100
